- System: human hepatocytes
- METHOD NOTES: Metabolic stability in human hepatocytes
- CONDITION LABEL: 1 μM test compound, 50% human serum, percentage of liver blood flow
PROPERTY MEASURED: Hepatic clearance - QH[%] in human hepatocytes (%)

>>> print(df.to_string())
                                   molecule  scale_unit  obs_value
0  C[C@@H](NC(=O)c1cc(N2CCC3(CCCCN3)CC2)c2ncnn2c1)c1cccc(C(F)F)c1F           %         19
1  C[C@@H](NC(=O)c1cc(N2CCC(N3CC4CC4C3CO)CC2)c2ncnn2c1)c1cccc(C(F)F)c1F (single isomer, unassigned) [Example cis-E11a]           %         38
2  C[C@@H]1[C@H](O)CN1C1CCN(c2cc(C(=O)N[C@H](C)c3cccc(C(F)(F)F)c3F)cn3ncnc23)CC1           %         17
